- EXPERIMENTAL SYSTEM: Decaprenylphosphoryl-beta-D-ribose oxidase (Mycobacterium tuberculosis (strain ATCC 25618 / H37Rv))
- Sequence (P9WJF1 whole entry): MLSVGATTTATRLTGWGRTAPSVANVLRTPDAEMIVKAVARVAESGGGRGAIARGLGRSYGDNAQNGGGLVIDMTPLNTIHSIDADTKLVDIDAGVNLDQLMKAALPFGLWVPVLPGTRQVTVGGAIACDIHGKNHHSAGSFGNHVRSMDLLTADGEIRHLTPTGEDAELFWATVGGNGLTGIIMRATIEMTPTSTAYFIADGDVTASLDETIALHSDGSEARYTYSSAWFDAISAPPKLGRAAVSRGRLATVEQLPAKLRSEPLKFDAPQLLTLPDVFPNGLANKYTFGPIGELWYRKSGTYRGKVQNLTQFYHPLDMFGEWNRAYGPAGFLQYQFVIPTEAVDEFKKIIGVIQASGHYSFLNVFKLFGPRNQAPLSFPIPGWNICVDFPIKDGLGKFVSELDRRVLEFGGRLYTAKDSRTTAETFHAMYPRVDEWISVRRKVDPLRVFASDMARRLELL
- TEST NAME: Inhibition of recombinant Mycobacterium tuberculosis H37Rv DprE1 using FPR as substrate assessed as residual enzymatic activity preincubated for 10 mins followed by substrate addition by fluorescence assay
MEASURED METRIC: IC50 (µM)

# SMILES NOTATION, MEASURED METRIC, UNITS SYMBOL, REPORTED MEASUREMENT
rows = [
    ("C[C@H]1COC2(CCN(c3nc(=O)c4cc(C(F)(F)F)cc(N=[N+]=[N-])c4s3)CC2)O1", "IC50", "µM", 9.6),
]
